system: NCI-H2722 (Mesothelioma); assay: Bliss excess, mean over the matrix (fraction); higher = more synergy
Overview of recorded Bliss excess for various molecules
Number, no unit, nothing else.

Below are worked cases with known answers.
NC1(C(=O)N[C@@H](CCO)c2ccc(Cl)cc2)CCN(c2ncnc3[nH]ccc23)CC1 [Capivasertib] + CCN(CCO)CCCOc1ccc2c(Nc3cc(CC(=O)Nc4cccc(F)c4)[nH]n3)ncnc2c1 [AZD2811] (first compound max 10 µM, 7x7, partner max 1 µM) = -0.0044
Cn1cnc2c(F)c(Nc3ccc(Br)cc3Cl)c(C(=O)NOCCO)cc21 [Selumetinib] + CC(C)n1c(=O)n(C)c2cnc3cc(F)c(-c4ccc(OCCCN5CCCCC5)nc4)cc3c21 [AZD1390] (first compound max 10 µM, 7x7, partner max 0.3 µM) = -0.0678
CN(CCO)CC[C@H](CSc1ccccc1)Nc1ccc(S(=O)(=O)NC(=O)c2ccc(N3CCC([C@@H](O)c4ccccc4-c4ccc(Cl)cc4)CC3)cc2)cc1S(=O)(=O)C(F)(F)F [AZD4320] + Cn1cnc2c(F)c(Nc3ccc(Br)cc3Cl)c(C(=O)NOCCO)cc21 [Selumetinib] (first compound max 1 µM, 7x7, partner max 3 µM) = -0.011
Cc1c2c(nn1C)CSCc1cc(n(C)n1)CSc1cc(c3ccccc3c1)OCCCc1c(C(=O)O)n(C)c3c-2c(Cl)ccc13 [AZD5991] + CC1(C)CCC(CN2CCN(c3ccc(C(=O)NS(=O)(=O)c4ccc(NCC5CCOCC5)c([N+](=O)[O-])c4)c(Oc4cnc5[nH]ccc5c4)c3)CC2)=C(c2ccc(Cl)cc2)C1 [Venetoclax] (first compound max 1 µM, 7x7, partner max 1 µM) = -0.0733
CN(C)CCCOc1ccc(-c2ccc3ncc4c(c3c2)n(C2CCOCC2)c(=O)n4C)cn1 [AZD0156] + CCN(CCO)CCCOc1ccc2c(Nc3cc(CC(=O)Nc4cccc(F)c4)[nH]n3)ncnc2c1 [AZD2811] (first compound max 1 µM, 7x7, partner max 1 µM) = -0.0226
CN(C)CCCOc1ccc(-c2ccc3ncc4c(c3c2)n(C2CCOCC2)c(=O)n4C)cn1 [AZD0156] + C=CCn1c(=O)c2cnc(Nc3ccc(N4CCN(C)CC4)cc3)nc2n1-c1cccc(C(C)(C)O)n1 [AZD1775] (first compound max 1 µM, partner max 1 µM) = -0.0363

Lookup: Name the recorded Bliss excess for CC(=O)c1c(C)c2cnc(Nc3ccc(N4CCNCC4)cn3)nc2n(C2CCCC2)c1=O [Palbociclib] + Cc1c2c(nn1C)CSCc1cc(n(C)n1)CSc1cc(c3ccccc3c1)OCCCc1c(C(=O)O)n(C)c3c-2c(Cl)ccc13 [AZD5991] (first compound max 10 µM, 7x7, partner max 1 µM) .
Found: -0.0649

Lookup: Name the recorded Bliss excess for COc1cccc(OCCCN)c1-c1cc(Nc2cnc(C#N)cn2)n[nH]1 [Prexasertib] + C[C@@H]1COCCN1C2=NC(=NC(=C2)C3(CC3)[S@](=N)(=O)C)C4=C5C=CNC5=NC=C4 [AZD6738] (first compound max 1 µM, 7x7, partner max 10 µM) .
Found: -0.002

====

system: L-428 (Hodgkin's Lymphoma); assay: Bliss excess, mean over the matrix (fraction); higher = more synergy
I'd appreciate it if you could label each record using Bliss excess and these ranges: low bracket: < -0.04; middle bracket: ≥ -0.04 and < 0.02; high bracket: ≥ 0.02

Check out these entries, answers already filled in.
CC1(C)CCC(CN2CCN(c3ccc(C(=O)NS(=O)(=O)c4ccc(NCC5CCOCC5)c([N+](=O)[O-])c4)c(Oc4cnc5[nH]ccc5c4)c3)CC2)=C(c2ccc(Cl)cc2)C1 [Venetoclax] + CCN(CCO)CCCOc1ccc2c(Nc3cc(CC(=O)Nc4cccc(F)c4)[nH]n3)ncnc2c1 [AZD2811] (first compound max 1 µM, 7x7, partner max 1 µM) = middle bracket
CCN(CCO)CCCOc1ccc2c(Nc3cc(CC(=O)Nc4cccc(F)c4)[nH]n3)ncnc2c1 [AZD2811] + O=C(c1cc(Cc2n[nH]c(=O)c3ccccc23)ccc1F)N1CCN(C(=O)C2CC2)CC1 [Olaparib] (first compound max 1 µM, 7x7, partner max 10 µM) = high bracket

Lookup: Class? Entry: Cc1c2c(nn1C)CSCc1cc(n(C)n1)CSc1cc(c3ccccc3c1)OCCCc1c(C(=O)O)n(C)c3c-2c(Cl)ccc13 [AZD5991] + Cn1cnc2c(F)c(Nc3ccc(Br)cc3Cl)c(C(=O)NOCCO)cc21 [Selumetinib] (first compound max 1 µM, 7x7, partner max 3 µM)
Found: middle bracket

Lookup: Class? Entry: Cc1cc2ncnn2cc1Nc1ncc2c(n1)n(C1CCOCC1)c(=O)n2C [AZD7648] + CCN(CCO)CCCOc1ccc2c(Nc3cc(CC(=O)Nc4cccc(F)c4)[nH]n3)ncnc2c1 [AZD2811] (first compound max 10 µM, 7x7, partner max 1 µM)
Found: high bracket

Lookup: Class? Entry: Cc1cc2ncnn2cc1Nc1ncc2c(n1)n(C1CCOCC1)c(=O)n2C [AZD7648] + O=C(c1cc(Cc2n[nH]c(=O)c3ccccc23)ccc1F)N1CCN(C(=O)C2CC2)CC1 [Olaparib] (first compound max 10 µM, 7x7, partner max 10 µM)
Found: middle bracket

Lookup: Class? Entry: NC1(C(=O)N[C@@H](CCO)c2ccc(Cl)cc2)CCN(c2ncnc3[nH]ccc23)CC1 [Capivasertib] + CCN(CCO)CCCOc1ccc2c(Nc3cc(CC(=O)Nc4cccc(F)c4)[nH]n3)ncnc2c1 [AZD2811] (first compound max 10 µM, 7x7, partner max 1 µM)
Found: middle bracket

Lookup: Class? Entry: Cc1nc(Nc2ncc(C(=O)Nc3c(C)cccc3Cl)s2)cc(N2CCN(CCO)CC2)n1 [Dasatinib] + CC(=O)Nc1cccc(-n2c(=O)n(C3CC3)c(=O)c3c(Nc4ccc(I)cc4F)n(C)c(=O)c(C)c32)c1 [Trametinib] (first compound max 2 µM, 7x7, partner max 1 µM)
Found: low bracket

Lookup: Class? Entry: COc1cccc(OCCCN)c1-c1cc(Nc2cnc(C#N)cn2)n[nH]1 [Prexasertib] + C[C@@H]1COCCN1C2=NC(=NC(=C2)C3(CC3)[S@](=N)(=O)C)C4=C5C=CNC5=NC=C4 [AZD6738] (first compound max 1 µM, 7x7, partner max 10 µM)
Found: low bracket

Lookup: Class? Entry: NC1(C(=O)N[C@@H](CCO)c2ccc(Cl)cc2)CCN(c2ncnc3[nH]ccc23)CC1 [Capivasertib] + CC(C)n1c(=O)n(C)c2cnc3cc(F)c(-c4ccc(OCCCN5CCCCC5)nc4)cc3c21 [AZD1390] (first compound max 10 µM, 7x7, partner max 0.3 µM)
Found: middle bracket

====

system: OVCAR-5 (Ovarian Carcinoma); experiment: combination Emax (second highest fraction inhibited in the dose matrix, 72 h); higher = more inhibition; extreme values may be limits of the assay
Assay metric: combination Emax
Number, no unit, nothing else.

Below are worked cases with known answers.
Cc1c2c(nn1C)CSCc1cc(n(C)n1)CSc1cc(c3ccccc3c1)OCCCc1c(C(=O)O)n(C)c3c-2c(Cl)ccc13 [AZD5991] + C=CCn1c(=O)c2cnc(Nc3ccc(N4CCN(C)CC4)cc3)nc2n1-c1cccc(C(C)(C)O)n1 [AZD1775] (first compound max 1 µM, partner max 1 µM) = 0.343
CN(C)CCCOc1ccc(-c2ccc3ncc4c(c3c2)n(C2CCOCC2)c(=O)n4C)cn1 [AZD0156] + O=C(c1cc(Cc2n[nH]c(=O)c3ccccc23)ccc1F)N1CCN(C(=O)C2CC2)CC1 [Olaparib] (first compound max 3 µM, partner max 3 µM) = 0.45
COc1cccc(OCCCN)c1-c1cc(Nc2cnc(C#N)cn2)n[nH]1 [Prexasertib] + C=CCn1c(=O)c2cnc(Nc3ccc(N4CCN(C)CC4)cc3)nc2n1-c1cccc(C(C)(C)O)n1 [AZD1775] (first compound max 1 µM, partner max 1 µM) = 0.838

Here is another molecule to look at.
Lookup: Give combination Emax (OVCAR-5 (Ovarian Carcinoma)) of the following molecule: CN(C)CCCOc1ccc(-c2ccc3ncc4c(c3c2)n(C2CCOCC2)c(=O)n4C)cn1 [AZD0156] + CCN(CCO)CCCOc1ccc2c(Nc3cc(CC(=O)Nc4cccc(F)c4)[nH]n3)ncnc2c1 [AZD2811] (first compound max 1 µM, 7x7, partner max 1 µM)
Found: 0.137

====

system: YAPC (Pancreatic Carcinoma); assay: combination Emax (second highest fraction inhibited in the dose matrix, 72 h); higher = more inhibition; extreme values may be limits of the assay
Overview of recorded combination Emax for various compounds
Number, no unit, nothing else.

Below are worked cases with known answers.
C[C@@H]1COCCN1c1cc(C2([S@](C)(=N)=O)CC2)nc(-c2ccnc3[nH]ccc23)n1 [AZD6738] + O=C(c1cc(Cc2n[nH]c(=O)c3ccccc23)ccc1F)N1CCN(C(=O)C2CC2)CC1 [Olaparib] (first compound max 10 µM, 7x7, partner max 10 µM) = 0.288
C=CCn1c(=O)c2cnc(Nc3ccc(N4CCN(C)CC4)cc3)nc2n1-c1cccc(C(C)(C)O)n1 [AZD1775] + O=C(c1cc(Cc2n[nH]c(=O)c3ccccc23)ccc1F)N1CCN(C(=O)C2CC2)CC1 [Olaparib] (first compound max 1 µM, partner max 10 µM) = 0.432
CN(CCO)CC[C@H](CSc1ccccc1)Nc1ccc(S(=O)(=O)NC(=O)c2ccc(N3CCC([C@@H](O)c4ccccc4-c4ccc(Cl)cc4)CC3)cc2)cc1S(=O)(=O)C(F)(F)F [AZD4320] + CC(=O)O[C@H]1C(=O)[C@@]2(C)[C@H]([C@H](OC(=O)c3ccccc3)[C@]3(O)C[C@H](OC(=O)[C@H](O)[C@@H](NC(=O)c4ccccc4)c4ccccc4)C(C)=C1C3(C)C)[C@]1(OC(C)=O)CO[C@@H]1C[C@@H]2O [Paclitaxel] (first compound max 1 µM, 7x7, partner max 3 µM) = 0.395
C[C@@H]1COCCN1c1cc(C2([S@](C)(=N)=O)CC2)nc(-c2ccnc3[nH]ccc23)n1 [AZD6738] + C1CC(C1)(C(=O)[O-])C(=O)[O-].N.N.[Pt+2] [Carboplatin] (first compound max 10 µM, 7x7, partner max 10 µM) = 0.369
Cn1cnc2c(F)c(Nc3ccc(Br)cc3Cl)c(C(=O)NOCCO)cc21 [Selumetinib] + C[C@@H]1COCCN1C2=NC(=NC(=C2)C3(CC3)[S@](=N)(=O)C)C4=C5C=CNC5=NC=C4 [AZD6738] (first compound max 10 µM, 7x7, partner max 10 µM) = 0.22
CN(CCO)CC[C@H](CSc1ccccc1)Nc1ccc(S(=O)(=O)NC(=O)c2ccc(N3CCC([C@@H](O)c4ccccc4-c4ccc(Cl)cc4)CC3)cc2)cc1S(=O)(=O)C(F)(F)F [AZD4320] + Nc1ccn([C@@H]2O[C@H](CO)[C@@H](O)C2(F)F)c(=O)n1 [Gemcitabine] (first compound max 1 µM, 7x7, partner max 0.3 µM) = 0.535

Lookup: Give combination Emax (YAPC (Pancreatic Carcinoma)) of the following compound: CCN(CCO)CCCOc1ccc2c(Nc3cc(CC(=O)Nc4cccc(F)c4)[nH]n3)ncnc2c1 [AZD2811] + O=C(c1cc(Cc2n[nH]c(=O)c3ccccc23)ccc1F)N1CCN(C(=O)C2CC2)CC1 [Olaparib] (first compound max 1 µM, 7x7, partner max 10 µM)
Found: 0.147

Lookup: Give combination Emax (YAPC (Pancreatic Carcinoma)) of the following compound: CCN(CCO)CCCOc1ccc2c(Nc3cc(CC(=O)Nc4cccc(F)c4)[nH]n3)ncnc2c1 [AZD2811] + C[C@@H]1COCCN1C2=NC(=NC(=C2)C3(CC3)[S@](=N)(=O)C)C4=C5C=CNC5=NC=C4 [AZD6738] (first compound max 1 µM, 7x7, partner max 10 µM)
Found: 0.288
